# Tested on: wheat, winter (winter wheat, Triticum aestivum)
# Method notes: Test D controlled growth environment herbicide test, pre- and postemergence
# Assay type: in vivo
# Settings: Postemergence, 31 g ai/ha; scale 0 to 100 (0 no effect, 100 complete control)
Readout label: Wheat, Winter plant response rating
Field format: numeric only.

Could you share which Wheat, Winter plant response rating value was measured for CCC(=O)Oc1c(C)nn(C)c(=O)c1-c1c(C)sc2c(C)cc(C)cc12 ?
5

Any idea what its Wheat, Winter plant response rating is? The compound is Cc1ccc(-c2c(O)c(Br)nn(C)c2=O)c2ccccc12
0

Using the record for Cc1ccc2ccccc2c1-c1c(O)c(C)nn(C)c1=O , report its Wheat, Winter plant response rating.
35

Bench note: what Wheat, Winter plant response rating did Cc1nn(C)c(=O)c(-c2c(C)sc3ccc(Cl)cc23)c1O show?
5

What measured Wheat, Winter plant response rating goes with CCC(=O)Oc1c(C)nn(C)c(=O)c1-c1c(C)sc2ccc(C)cc12 ?
0

Which Wheat, Winter plant response rating reading was recorded for the compound CCOC(=O)Oc1c(C)nn(C)c(=O)c1-c1c(C)sc2c(C)cc(C)cc12 ?
0

* * *

# Test system: wheat, spring (spring wheat, Triticum aestivum)
# Method notes: Test D controlled growth environment herbicide test, pre- and postemergence
# Assay type: in vivo
# Settings: Postemergence, 31 g ai/ha; scale 0 to 100 (0 no effect, 100 complete control)
Readout label: Wheat, Spring plant response rating

Look up Wheat, Spring plant response rating: CCOC(=O)Oc1c(C)nn(C)c(=O)c1-c1c(C)sc2c(C)cc(C)cc12 [Compound 83]
0

May I ask what Wheat, Spring plant response rating has been recorded for Cc1cc(C)c2sc(C)c(-c3c(OC(=O)OC(C)C)c(C)nn(C)c3=O)c2c1 [Compound 67] ?
0

Which Wheat, Spring plant response rating reading was recorded for the compound Cc1ccc(-c2c(O)c(Br)nn(C)c2=O)c2ccccc12 [Compound 52] ?
0

Quick one: Wheat, Spring plant response rating of Cc1ccc2ccc(C)c(-c3c(O)c(C)nn(C)c3=O)c2c1 [Compound 60] ?
30

* * *

Provide the reported Plant response rating, Sandbur of each item.
# Test system: sandbur (southem sandbur, Cenchrus echinatus)
# Method notes: Test E greenhouse herbicide test, pre- and postemergence
# Assay type: in vivo
# Settings: 125 g ai/ha, Preemergence; scale 0 to 100 (0 no effect, 100 complete control)
A bare number is all that is needed in reply.

Dear colleague, I am looking for the recorded Plant response rating, Sandbur of the following compound: CC(=O)Oc1c(C)nn(C)c(=O)c1-c1c(C)sc2ccc(C)cc12
80

Dear colleague, I am looking for the recorded Plant response rating, Sandbur of the following compound: CCOC(=O)Oc1c(C)nn(C)c(=O)c1-c1c(C)sc2ccc(C)cc12
60

# input compound: CCC(=O)Oc1c(C)nn(C)c(=O)c1-c1c(C)sc2ccc(Cl)cc12 ; wanted: its Plant response rating, Sandbur
75

Give the measured Plant response rating, Sandbur of COC(=O)Oc1c(C)nn(C)c(=O)c1-c1c(C)sc2c(C)cc(C)cc12 .
70

* * *

Task for the reader: assign each of the following molecules its reported Plant response rating, Lambsquarters.
# Test system: lambsquarters (Chenopodium album)
# Method notes: Test D controlled growth environment herbicide test, pre- and postemergence
# Format: in vivo
# Settings: Postemergence, 250 g ai/ha; scale 0 to 100 (0 no effect, 100 complete control)
# From the text: […]
Please state the value as a number alone, without comment.

Lab request: please report Plant response rating, Lambsquarters under test system lambsquarters (Chenopodium album) for CC(=O)Oc1c(C)nn(C)c(=O)c1-c1c(C)cc(C)c2ccccc12 [Compound 153]
75

Lookup: Plant response rating, Lambsquarters / lambsquarters (Chenopodium album) / CCC(=O)Oc1c(C)nn(C)c(=O)c1-c1c(C)sc2c(C)cc(C)cc12 [Compound 28]
90

Lookup: Plant response rating, Lambsquarters / lambsquarters (Chenopodium album) / Cc1nn(C)c(=O)c(-c2c(C)sc3ccc(Cl)cc23)c1O [Compound 104]
100

Value wanted: Plant response rating, Lambsquarters (lambsquarters (Chenopodium album)) of entry CC(=O)Oc1c(C)nn(C)c(=O)c1-c1c(C)sc2ccc(C)cc12 [Compound 25]
95

Form field: Plant response rating, Lambsquarters recorded for CCOC(=O)Oc1c(C)nn(C)c(=O)c1-c1c(C)sc2ccc(C)cc12 [Compound 82] with lambsquarters (Chenopodium album) (enter value)
100

Record lookup: for lambsquarters (Chenopodium album), what Plant response rating, Lambsquarters belongs to Cc1cc(C)c2sc(C)c(-c3c(OC(=O)OC(C)C)c(C)nn(C)c3=O)c2c1 [Compound 67] ?
100

Recall the recorded Plant response rating, Lambsquarters for Cc1cc(C)c2sc(C)c(-c3c(OC(=O)OCCCl)c(C)nn(C)c3=O)c2c1 [Compound 85] with lambsquarters (Chenopodium album) and state it.
95

Kindly state the measured Plant response rating, Lambsquarters obtained for Cc1ccc(-c2c(O)c(Br)nn(C)c2=O)c2ccccc12 [Compound 52] with lambsquarters (Chenopodium album).
90
